The entries below come with measured log10 of EC50 values attached.
Target: human apelin receptor (Homo sapiens)
Construct: expressed in transfected cells
Experiment: Determination of agonism on the human apelin receptor by a calcium fluorescence assay (FLIPR)
Format: cell-based
Conditions: HEK293 cells stably transfected with human apelin receptor and Giaq protein, Fluo-4 calcium fluorescence, read-out: EC50 (APJ agonism)
readout: log10 of EC50 (log10 of the value in nM)

INSERT INTO results (molecule, readout, numericreadout) VALUES
  ('CC(C)C[C@H](NC(=O)c1ccc2c(c1)nc(Cc1cccs1)n2C(C(C)C)C(C)C)C(=O)O', 'log10 of EC50', 3.80),
  ('CCCCOC[C@H](CC(C)C)NC(=O)c1ccc2c(c1)nc(Cc1cccs1)n2C(CC)CC', 'log10 of EC50', 4.01),
  ('CCC(CC)n1c(Cc2cccs2)nc2cc(C(=O)N[C@@H](CC(C)C)C(=O)NCC3CCN(CCOC)C3)ccc21 (stereo partly drawn)', 'log10 of EC50', 2.50),
  ('CC(C)C[C@H](NC(=O)c1ccc2c(c1)nc(Cc1cccs1)n2C1CCCCC1C)C(=O)O (single isomer, unassigned) [Example 415]', 'log10 of EC50', 2.73),
  ('CCC(CC)n1c(Cc2cccs2)nc2cc(C(=O)N[C@@H](CC(C)C)C(=O)NCC(=O)O)ccc21', 'log10 of EC50', 2.65),
  ('CCC(CC)n1c(Cc2cccs2)nc2cc(C(=O)N[C@@H](CC(C)C)C(=O)NCCCCN(C)C)ccc21', 'log10 of EC50', 2.46),
  ('CCC(CC)n1c(Cc2cccs2)nc2cc(C(=O)NC3(CC(=O)O)CCCCC3)ccc21', 'log10 of EC50', 2.25),
  ('CCC(CC)n1c(Cc2cccs2)nc2cc(C(=O)N[C@@H](CC(C)C)C(=O)N3CCC(N4CCC(C)CC4)C3)ccc21 (stereo partly drawn)', 'log10 of EC50', 2.86),
  ('CCC(CC)n1c(Cc2cccs2)nc2cc(C(=O)N[C@@H](CC(C)C)C(=O)NCc3ccccc3)ccc21', 'log10 of EC50', 3.46),
  ('CCC(CC)n1c(Cc2cccs2)nc2cc(C(=O)N[C@@H](CC(C)C)C(=O)N(C)CCOC)ccc21', 'log10 of EC50', 2.77),
  ('CCC(CC)n1c(Cc2cccs2)nc2cc(C(=O)N[C@@H](CC(C)C)C(=O)NC3CCCC3)ccc21', 'log10 of EC50', 3.39),
  ('CCC(CC)n1c(Cc2cccs2)nc2cc(C(=O)N[C@@H](CC(C)C)C(=O)NCCC3CCCCN3C)ccc21 (stereo partly drawn)', 'log10 of EC50', 2.53),
  ('CC(C)C[C@H](NC(=O)c1ccc2c(c1)nc(Cc1cccs1)n2[C@@H]1CCCC[C@H]1C)[C@@H](O)CC(=O)O', 'log10 of EC50', 2.00),
  ('CCC(CC)n1c(CC2CCCO2)nc2cc(C(=O)N[C@@H](CC3CCCCC3)C(=O)O)ccc21 (stereo partly drawn)', 'log10 of EC50', 2.95),
  ('CCC(CC)n1c(Cc2cccs2)nc2cc(C(=O)N[C@H](C(=O)O)C(C)C)ccc21', 'log10 of EC50', 3.64),
  ('CCC(CC)n1c(Cc2cccs2)nc2cc(C(=O)N[C@@H](CC(C)C)C(=O)NCCc3nnn[nH]3)ccc21', 'log10 of EC50', 1.85),
  ('CCC(CC)n1c(Cc2cccs2)nc2cc(C(=O)N[C@@H](CC(C)C)C(=O)NC3C[C@H]4CC[C@@H](C3)N4C)ccc21 (stereo partly drawn)', 'log10 of EC50', 2.33),
  ('CCC(CC)n1c(Cc2cscn2)nc2cc(C(=O)N[C@H](CC(=O)O)CC(C)C)ccc21', 'log10 of EC50', 3.34),
  ('CCC(CC)n1c(Cc2cccs2)nc2cc(C(=O)N[C@@H](CC(C)C)C(=O)NC3CC4CCCC(C3)N4C)ccc21 (stereo partly drawn)', 'log10 of EC50', 3.09),
  ('CCC(CC)n1c(Cc2cccs2)nc2cc(C(=O)N[C@@H](CC3CCC3)C(=O)O)ccc21', 'log10 of EC50', 1.90);

###

Biological target: human apelin receptor (Homo sapiens)
Construct: expressed in transfected cells
Assay: Determination of agonism on the human apelin receptor by a calcium fluorescence assay (FLIPR)
Type: cell-based
Conditions: HEK293 cells stably transfected with human apelin receptor and Giaq protein, Fluo-4 calcium fluorescence, read-out: EC50 (APJ agonism)
readout: EC50 (µM)

INSERT INTO measurements (molecule, readout, unitabbrev, numericreadout) VALUES
  ('CCC(CC)n1c(Cc2cccs2)nc2cc(C(=O)N[C@@H](CC(C)C)C(=O)NCCCOCC3CC3)ccc21', 'EC50', 'µM', 2.18),
  ('CCCC(NC(=O)c1ccc2c(c1)nc(Cc1cccs1)n2C(CC)CC)C(C)(C)C(=O)O (single isomer, unassigned) [Example 467]', 'EC50', 'µM', 0.265),
  ('CCC(CC)n1c(CC2CCCC2)nc2cc(C(=O)NC(CC(C)C)C(N)=O)ccc21 (stereo not shown)', 'EC50', 'µM', 6.65),
  ('CCC(CC)n1c(Cc2cccs2)nc2cc(C(=O)N[C@@H](CC(C)C)C(=O)NCC3CCCN(Cc4ccccc4)C3)ccc21 (stereo partly shown)', 'EC50', 'µM', 1.1),
  ('CC(C)C[C@H](NC(=O)c1ccc2c(c1)nc(Cc1ccsc1)n2C1CCCCC1)C(=O)O', 'EC50', 'µM', 3.95),
  ('CCC(CC)n1c(Cc2cccs2)nc2cc(C(=O)NC(CO)c3ccccc3)ccc21 (stereo not shown)', 'EC50', 'µM', 14.4),
  ('CC(C)C[C@H](NC(=O)c1ccc2c(c1)nc(Cc1ccsc1)n2C1CCCCC1C)C(=O)O (stereo partly shown)', 'EC50', 'µM', 0.285),
  ('CCC(CC)n1c(Cc2cccs2)nc2cc(C(=O)N[C@@H](CC(C)C)C(=O)NC3CCN(CCc4ccccc4)CC3)ccc21', 'EC50', 'µM', 1.59),
  ('CCC(CC)C(CC(=O)O)NC(=O)c1ccc2c(c1)nc(Cc1cccs1)n2C(CC)CC (stereo not shown)', 'EC50', 'µM', 0.576),
  ('CC(C)C[C@@H](CO)NC(=O)c1ccc2c(c1)nc(Cc1cccs1)n2C1CCCCC1C (stereo partly shown)', 'EC50', 'µM', 0.705);

###

Target: human apelin receptor (Homo sapiens, UniProt P35414)
Construct: expressed in transfected cells
Sequence (P35414 whole entry): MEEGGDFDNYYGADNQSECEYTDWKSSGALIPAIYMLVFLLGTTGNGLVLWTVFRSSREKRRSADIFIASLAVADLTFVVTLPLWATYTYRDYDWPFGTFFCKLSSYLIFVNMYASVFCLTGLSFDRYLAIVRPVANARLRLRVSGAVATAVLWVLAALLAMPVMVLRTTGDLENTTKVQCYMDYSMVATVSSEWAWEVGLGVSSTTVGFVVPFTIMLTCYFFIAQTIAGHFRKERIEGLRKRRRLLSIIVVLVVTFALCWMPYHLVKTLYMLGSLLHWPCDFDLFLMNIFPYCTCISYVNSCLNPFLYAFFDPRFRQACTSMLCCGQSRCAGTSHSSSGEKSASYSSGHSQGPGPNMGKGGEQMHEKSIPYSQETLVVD
Experiment: Determination of agonism on the human apelin receptor by a calcium fluorescence assay (FLIPR)
Format: cell-based
Conditions: HEK293 cells stably transfected with human apelin receptor and Giaq protein, Fluo-4 calcium fluorescence, read-out: EC50 (APJ agonism)
readout: EC50 (nM)

INSERT INTO measurements (compound, readout, numericreadout) VALUES
  ('CCCCC(NC(=O)c1ccc2c(c1)nc(Cc1cccs1)n2C(CC)CC)C(C)(C)C(=O)O (stereo not drawn) [Example 58]', 'EC50', 172),
  ('CC(C)C[C@H](NC(=O)c1ccc2c(c1)nc(Cc1cccs1)n2-c1ccccc1Cl)C(=O)O', 'EC50', 1010),
  ('CCC(CC)n1c(Cc2cccs2)nc2cc(C(=O)N[C@@H](CC(C)C)C(=O)NC3CCN(CC)CC3)ccc21', 'EC50', 185);

###

Target: human apelin receptor (Homo sapiens)
Construct: expressed in transfected cells
Assay: Determination of agonism on the human apelin receptor by a calcium fluorescence assay (FLIPR)
Format: cell-based
Details: HEK293 cells stably transfected with human apelin receptor and Giaq protein, Fluo-4 calcium fluorescence, read-out: EC50 (APJ agonism)
pEC50: −log10 of the molar value.
# pEC50 annotations
readout: pEC50

INSERT INTO assay_data (molecule, measuredtarget, readout, numericreadout) VALUES
  ('CCC(CC)n1c(Cc2cccs2)nc2cc(C(=O)N[C@@H](CC(C)C)C(=O)N3CC[C@H](N(C)C)C3)ccc21', 'human apelin receptor (Homo sapiens)', 'pEC50', 6.61),
  ('CCC(CC)n1c(Cc2cccs2)nc2cc(C(=O)N[C@@H](CC(C)C)C(=O)NC[C@H]3CCCO3)ccc21', 'human apelin receptor (Homo sapiens)', 'pEC50', 5.78),
  ('CCC(CC)n1c(Cc2cccs2)nc2cc(C(=O)N[C@@H](CC(C)C)C(=O)NC(C)CCN3CCOCC3)ccc21 (stereo partly drawn)', 'human apelin receptor (Homo sapiens)', 'pEC50', 5.90),
  ('CCC(CC)n1c(Cc2cccs2)nc2cc(C(=O)N[C@@H](CC(C)C)C(=O)N3CC[C@@H](N(C)C)C3)ccc21', 'human apelin receptor (Homo sapiens)', 'pEC50', 6.77),
  ('CCC(CC)n1c(CC2CCCC2)nc2cc(C(=O)N[C@@H](CC3CCCCC3)C(=O)O)ccc21', 'human apelin receptor (Homo sapiens)', 'pEC50', 5.92),
  ('CCC(CC)n1c(Cc2cccs2)nc2cc(C(=O)N[C@@H](Cc3ccccc3)C(=O)O)ccc21', 'human apelin receptor (Homo sapiens)', 'pEC50', 5.03),
  ('CCC(CC)n1c(Cc2cccs2)nc2cc(C(=O)NC(CC(C)C)c3nnc(C)o3)ccc21 (stereo not drawn)', 'human apelin receptor (Homo sapiens)', 'pEC50', 5.46),
  ('CC1CCCCC1n1c(Cc2cccs2)nc2cc(C(=O)N[C@@H](CC3CCCCC3)C(=O)O)ccc21 (single isomer, unassigned) [Example 425]', 'human apelin receptor (Homo sapiens)', 'pEC50', 5.57),
  ('CCC(CC)n1c(Cc2cccs2)nc2cc(C(=O)N[C@@H](CC(C)C)C(=O)N[C@@H](C)c3ccc(OC)cc3)ccc21', 'human apelin receptor (Homo sapiens)', 'pEC50', 5.14),
  ('CC1CCCCC1n1c(Cc2cccs2)nc2cc(C(=O)N[C@@H](CC3CCCCC3)C(=O)O)ccc21 (stereo partly drawn) [Example 15]', 'human apelin receptor (Homo sapiens)', 'pEC50', 6.60),
  ('CCC(CC)n1c(Cc2cccs2)nc2cc(C(=O)N[C@@H](CC(C)C)C(=O)NC3CCN(c4ccccc4)CC3)ccc21', 'human apelin receptor (Homo sapiens)', 'pEC50', 4.85),
  ('CCC(CC)n1c(Cc2cccs2)nc2cc(C(=O)N[C@@H](CC(C)C)[C@@H](O)C(=O)O)ccc21', 'human apelin receptor (Homo sapiens)', 'pEC50', 7.10),
  ('CCC(CC)n1c(Cc2cccs2)nc2cc(C(=O)N[C@H](c3nnc(COC)[nH]3)C(C)C)ccc21', 'human apelin receptor (Homo sapiens)', 'pEC50', 4.80),
  ('CC1CCCCC1n1c(Cc2cccs2)nc2cc(C(=O)N[C@@H](CC3CCCCC3)C(=O)O)ccc21 (single isomer, unassigned) [Example 424]', 'human apelin receptor (Homo sapiens)', 'pEC50', 6.41),
  ('CCC(CC)n1c(Cc2cccs2)nc2cc(C(=O)N[C@@H](CC(C)C)C(=O)N3CC(C(=O)O)C3)ccc21', 'human apelin receptor (Homo sapiens)', 'pEC50', 6.09),
  ('CCC(CC)n1c(Cc2cccs2)nc2cc(C(=O)N[C@@H](CC(C)C)C(=O)N3CCC(N4CCCCCC4)CC3)ccc21', 'human apelin receptor (Homo sapiens)', 'pEC50', 6.42),
  ('CC(C)C[C@@H](CC(=O)O)NC(=O)c1ccc2c(c1)nc(Cc1ccco1)n2C1CCCCC1C (single isomer, unassigned) [Example 432]', 'human apelin receptor (Homo sapiens)', 'pEC50', 7.49),
  ('CCC(CC)n1c(Cc2cccs2)nc2cc(C(=O)N[C@@H](CC(C)C)C(=O)N3CCN(C4CCCCC4)CC3)ccc21', 'human apelin receptor (Homo sapiens)', 'pEC50', 5.54);
